test system: NCI-H2023; assay: relative viability (nuclei count vs DMSO), 5 days (fraction); higher = more cells survive; details: first compound 0.005 µM
Entries whose relative viability is below 0.5 take criterion met; entries at or above 0.5 take criterion not met.

Before answering, review these 6 worked examples.
{"COMPOUND": "Nc1ccn([C@@H]2O[C@H](CO)[C@@H](O)[C@@H]2O)c(=O)n1 [Cytarabine] + CC1(C)CCC(c2ccc(Cl)cc2)=C(CN2CCN(c3ccc(C(=O)NS(=O)(=O)c4ccc(N[C@H](CCN5CCOCC5)CSc5ccccc5)c(S(=O)(=O)C(F)(F)F)c4)cc3)CC2)C1 [Navitoclax] (partner 0.5 µM)", "DISCRETE_LABEL": "criterion not met"}
{"COMPOUND": "Nc1ccn([C@@H]2O[C@H](CO)[C@@H](O)[C@@H]2O)c(=O)n1 [Cytarabine] + CS(=O)(=O)CCNCc1ccc(-c2ccc3ncnc(Nc4ccc(OCc5cccc(F)c5)c(Cl)c4)c3c2)o1 [Lapatinib] (partner 2 µM)", "DISCRETE_LABEL": "criterion not met"}
{"COMPOUND": "Nc1ccn([C@@H]2O[C@H](CO)[C@@H](O)[C@@H]2O)c(=O)n1 [Cytarabine] + O=C(c1cc(Cc2n[nH]c(=O)c3ccccc23)ccc1F)N1CCN(C(=O)C2CC2)CC1 [Olaparib] (partner 8 µM)", "DISCRETE_LABEL": "criterion met"}
{"COMPOUND": "COc1cc2nccc(Oc3ccc(NC(=O)Nc4cc(C)on4)c(Cl)c3)c2cc1OC [Tivozanib] + COc1cc2c(Oc3ccc(NC(=O)C4(C(=O)Nc5ccc(F)cc5)CC4)cc3F)ccnc2cc1OCCCN1CCOCC1 [Foretinib] (partner 0.25 µM)", "DISCRETE_LABEL": "criterion not met"}
{"COMPOUND": "COc1cc2nccc(Oc3ccc(NC(=O)Nc4cc(C)on4)c(Cl)c3)c2cc1OC [Tivozanib] + CCNC(=O)c1noc(-c2cc(C(C)C)c(O)cc2O)c1-c1ccc(CN2CCOCC2)cc1 [Luminespib] (partner 0.01 µM)", "DISCRETE_LABEL": "criterion not met"}
{"COMPOUND": "Nc1ccn([C@@H]2O[C@H](CO)[C@@H](O)[C@@H]2O)c(=O)n1 [Cytarabine] + Cc1cc(Nc2cc(N3CCN(C)CC3)nc(Sc3ccc(NC(=O)C4CC4)cc3)n2)n[nH]1 [Tozasertib] (partner 0.1 µM)", "DISCRETE_LABEL": "criterion met"}

Just wondering, is relative viability of COc1cc2nccc(Oc3ccc(NC(=O)Nc4cc(C)on4)c(Cl)c3)c2cc1OC [Tivozanib] + Nc1nc2[nH]cc(CCc3ccc(C(=O)N[C@@H](CCC(=O)O)C(=O)O)cc3)c2c(=O)[nH]1 [Pemetrexed] (partner 0.2 µM) below 0.5?
criterion met

* * *

tested on: 201T; experiment: relative viability (nuclei count vs DMSO), 5 days (fraction); higher = more cells survive; details: first compound 0.1581 µM
Provide the reported relative viability of each item.
Answers are plain numbers.

Some molecules with known relative viability results, for comparison:
{"MOLECULE": "Nc1ccn([C@@H]2O[C@H](CO)[C@@H](O)[C@@H]2O)c(=O)n1 [Cytarabine] + C[C@@H](Oc1cc(-c2cnn(C3CCNCC3)c2)cnc1N)c1c(Cl)ccc(F)c1Cl [Crizotinib] (partner 1 µM)", "relative viability": 0.97}
{"MOLECULE": "COc1cc2nccc(Oc3ccc(NC(=O)Nc4cc(C)on4)c(Cl)c3)c2cc1OC [Tivozanib] + C[C@]1(O)C[C@@H](c2nc(-c3ccc4ccc(-c5ccccc5)nc4c3)c3c(N)nccn32)C1 [Linsitinib] (partner 1 µM)", "relative viability": 0.937}
{"MOLECULE": "COc1cc2nccc(Oc3ccc(NC(=O)Nc4cc(C)on4)c(Cl)c3)c2cc1OC [Tivozanib] + CCNC(=O)c1noc(-c2cc(C(C)C)c(O)cc2O)c1-c1ccc(CN2CCOCC2)cc1 [Luminespib] (partner 0.01 µM)", "relative viability": 1.06}

Proceeding to the next molecule to report its relative viability.
Fill in: relative viability of Nc1ccn([C@@H]2O[C@H](CO)[C@@H](O)[C@@H]2O)c(=O)n1 [Cytarabine] + COc1cc2c(Oc3ccc(NC(=O)C4(C(=O)Nc5ccc(F)cc5)CC4)cc3F)ccnc2cc1OCCCN1CCOCC1 [Foretinib] (partner 0.25 µM) is ___
0.762
